Molecular target: SpHof1-2
Test: SPOT peptide array binding signal intensity (averaged, normalized) (arbitrary units (background-subtracted, floor 0; scale differs between SH3 domains)); higher = stronger binding of the SH3 domain to the peptide
attribute.measured: SPOT peptide array binding signal intensity
Would you mind answering with just the numeric figure?

// below: answered binders
[[record]]
binder = "AAHKTKPSIPPKKVE"
experimental_value = 6

[[record]]
binder = "RLSFFFPLDPAYIRN"
experimental_value = 45

[[record]]
binder = "QFDLKMPSKPIHNLK"
experimental_value = 11.8

[[record]]
binder = "TPRLSLPRLPNKHHW"
experimental_value = 293

[[record]]
binder = "NRLRKRLNLPSEISI"
experimental_value = 7


Query: Quickly give me recorded SPOT peptide array binding signal intensity for NLPKRKPPKLQGPFS
Reply: 3.25

Query: Report measured SPOT peptide array binding signal intensity; entry is GAGERPRLVPRPINV
Reply: 6

Query: Specify reported SPOT peptide array binding signal intensity for the binder shown: NGRRRPKFRVQLSGN
Reply: 12.5

Query: Tell me measured SPOT peptide array binding signal intensity for MFLISPPASPPPEFD please.
Reply: 8.25

Query: Supply reported SPOT peptide array binding signal intensity belonging to this binder: HVRRSILALPLGVLL
Reply: 8.5

Query: Please give the documented SPOT peptide array binding signal intensity of TKFRISLGLPVGAIM
Reply: 78.2

Query: For the binder ISNFVPPNLPMRRFK , report SPOT peptide array binding signal intensity.
Reply: 41

Query: Look up and state reported SPOT peptide array binding signal intensity for RRRRRPHRIERPLSN
Reply: 13

Query: Give the reported SPOT peptide array binding signal intensity for this binder. ERPKRRAPPPVPKKP
Reply: 12

Query: Look up and report measured SPOT peptide array binding signal intensity for this entry: QPQRTAPKPPISAPR
Reply: 7.5

Query: Complete the entry with SPOT peptide array binding signal intensity for TKRKRPARLIFYDSK
Reply: 27.5
